Test system: HCT-15 colon
measurement-description: NCI-60 one-dose screen, 48 h (100 = growth as untreated, 0 = no growth, -100 = all killed)
experimental-context: 10 µM unless noted
Compounds without any hit were thinned out: in the full panel of roughly 83,000, 20% have a hit.
attribute-measured: growth (%)

| molecule | numeric-result |
| --- | --- |
| COc1ccc2nc3cc(Cl)ccc3c(N3CCN(c4nccc(Nc5ccc(Cl)cc5)n4)CC3)c2c1 | 56.5 |
| CC(=O)CC(C)(C)c1ccc(Cl)cc1 | 101 |
| Nc1ccc(Nc2nccc(-c3ccc4ccccc4c3)n2)cc1 | 25 |
| CC/C(Cc1ccccc1)=C(/c1ccc(O)cc1)c1ccc(OCCN2CCCC2)cc1 | -56.2 |
| C=CC[N+]1(CC)CCN=C1CCCCCCCCCCCCCCCCC (stereo not given) | -88.6 |
| Clc1nc(Cl)c2c3c(sc2n1)CCCC3 | 26.7 |
| COc1ccc2[nH]c(=O)c(/C=C/C(=O)c3ccc(Nc4nccc(-c5ccc6ccccc6c5)n4)cc3)cc2c1 | 110 |
| COc1ccc(/C=C/C(=O)c2c(O)c(C)c(O)c3c2OC2=CC(O)=C(C(C)=O)C(=O)[C@]23C)cc1 | -21.3 |
| O=C1c2cccnc2C(=O)c2c1c(C(=O)OCCN1CCOCC1)c1ccccn21 | -65.6 |
| Oc1cccc(Nc2nccc(-c3ccc4ccccc4c3)n2)c1 | 22.2 |

Values from PubChem BioAssay (NCI)
